Data credit: patent US11051515B2

Kindly state Pre-emergence action against MATIN for each of the entries shown.
System: MATIN
Experiment: Pre-emergence action against MATIN
Format: in vivo, Matricaria inodora
Conditions: Dosage 320 g/ha, pre-emergence

Hello, I am looking for reported Pre-emergence action against MATIN with MATIN for CCn1nnnc1NC(=O)c1ccc(C(F)(F)F)c(C(C)=O)c1OC . Could you help?
100%

Item: CCn1nnnc1NC(=O)c1ccc(C)c(C(C)=O)c1C Test system: MATIN Read-out: Pre-emergence action against MATIN Value: ?
90%

Request - read-out Pre-emergence action against MATIN | tested on MATIN | compound Cn1nnnc1NC(=O)c1ccc(C(F)(F)F)c(C(=O)C2CCC2)c1Cl
100%

MATIN / Pre-emergence action against MATIN / Cn1nnnc1NC(=O)c1ccc(C(F)(F)F)c(C(=O)C2CCCC2)c1Cl : value?
100%

Recall the recorded Pre-emergence action against MATIN for CCn1nnnc1NC(=O)c1ccc(C(F)F)c(C(=O)C2CC2)c1Cl with MATIN and state it.
100%

Observed Pre-emergence action against MATIN on MATIN for CCn1nnnc1NC(=O)c1ccc(C(F)(F)F)c(C(C)=O)c1C , please.
100%

Give the reported Pre-emergence action against MATIN for CCn1nnnc1NC(=O)c1ccc(C(F)(F)F)c(C(=O)C2(C)CC2)c1Cl (system: MATIN).
100%

Lab request: please report Pre-emergence action against MATIN under test system MATIN for CCCn1nnnc1NC(=O)c1ccc(C(F)(F)F)c(C(=O)C2CC2)c1Br
100%

Quick check: Pre-emergence action against MATIN on MATIN, item CCn1nnnc1NC(=O)c1ccc(C(F)(F)F)c(C(=O)C2CC2)c1OC ?
100%

# query: Pre-emergence action against MATIN | item CCCn1nnnc1NC(=O)c1ccc(C(F)(F)F)c(C(=O)C(C)C)c1Cl | system: MATIN
100%

Lab request: please report Pre-emergence action against MATIN under test system MATIN for CCCn1nnnc1NC(=O)c1ccc(C(F)(F)F)c(C(C)=O)c1OC
100%

Request - read-out Pre-emergence action against MATIN | tested on MATIN | compound Cn1nnnc1NC(=O)c1ccc(C(F)(F)F)c(C(=O)C2CCCCC2)c1Cl
90%

Provide the documented Pre-emergence action against MATIN with MATIN as the system for CCCn1nnnc1NC(=O)c1ccc(C(F)(F)F)c(C(=O)C(F)F)c1Cl
100%

Request - read-out Pre-emergence action against MATIN | tested on MATIN | compound CCn1nnnc1NC(=O)c1ccc(C(F)(F)F)c(C(=O)C2CCCCC2)c1SC
90%

I'm curious: which Pre-emergence action against MATIN was measured for CCn1nnnc1NC(=O)c1ccc(C(F)(F)F)c(C(C)=O)c1SC tested on MATIN?
100%

Form: Entry = CCCC(=O)c1c(C(F)(F)F)ccc(C(=O)Nc2nnnn2CC)c1C | System = MATIN | Pre-emergence action against MATIN = ____
90%

I'm curious: which Pre-emergence action against MATIN was measured for CCCC(=O)c1c(C(F)(F)F)ccc(C(=O)Nc2nnnn2CCC)c1C tested on MATIN?
100%

Request - read-out Pre-emergence action against MATIN | tested on MATIN | compound CCn1nnnc1NC(=O)c1ccc(C(F)(F)F)c(C(=O)COC)c1Cl
100%

// fetch MATIN Pre-emergence action against MATIN for CCCn1nnnc1NC(=O)c1ccc(C(F)(F)F)c(C(=O)C2CCC2)c1Cl
90%

Please state recorded Pre-emergence action against MATIN (tested on MATIN) of CCn1nnnc1NC(=O)c1ccc(S(C)(=O)=O)c(C(C)=O)c1Cl
100%
